Below is a list of entries, each paired with its recorded abundance fitness value.
B1: FERM and PDZ domain-containing protein 4, residues 75 to 154; numbered along this chain, Q14CM0 (parent)
chain: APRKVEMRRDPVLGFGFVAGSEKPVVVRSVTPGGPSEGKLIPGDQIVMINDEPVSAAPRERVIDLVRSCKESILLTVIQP

Variants of: B1
Assay: abundance fitness (aPCA) (normalised: wild type 0, dead -1); higher = more abundant; growth selection in yeast, the domain comes from the species named
Details: Homo sapiens
Reply briefly: the number, and no unit.

# input Could you share which abundance fitness value was measured for "P53D" ?
# output 0.034
